Answer each item with its documented p53-positive nuclei, normalised.
- TGT: Cellular tumor antigen p53 (Homo sapiens)
- PROCEDURE_TEXT: nuclear p53 accumulation, HPV+ cells – imaging, p53-positive nuclei imaging, 24 h, 48 h (AID 1508601)
- CONDITION_DESCRIPTION: 24/48 h, measured here: p53 positive nuclei at 24 h, Library stock concentration: 1.5 uM, stronger effect = higher value
About 85 (1%) of roughly 5,700 compounds were called active. The sample as a whole holds a higher share of actives than the screen did.
Answers are plain numbers, in %.

p53-positive nuclei, normalised lookup needed for `CCOC(=O)c1sc(NC(=O)c2ccco2)c(SC#N)c1C` , thanks.
-0.173

p53-positive nuclei, normalised lookup needed for OCC1OC(n2cnc3c2NC=NCC3O)CC1O (stereo not given) , thanks.
-0.148

p53-positive nuclei, normalised lookup needed for `CN(NC(=O)CC(=O)NN(C)C(=S)c1ccccc1)C(=S)c1ccccc1` , thanks.
-0.0139

p53-positive nuclei, normalised lookup needed for C=C1C(=O)OC(CCCCCCCC)C1C(=O)O (stereo not given) , thanks.
0.12

p53-positive nuclei, normalised lookup needed for `O=C(O)c1ccccc1SC1=NS(=O)(=O)c2ccccc21` , thanks.
-0.0949

p53-positive nuclei, normalised lookup needed for CN(C)CCC(CSc1ccccc1)Nc1ccc(S(=O)(=O)NC(=O)c2ccc(N3CCN(Cc4ccccc4-c4ccc(Cl)cc4)CC3)cc2)cc1[N+](=O)[O-] (stereo not given) , thanks.
-0.0609

For the 4 compounds below, give their p53-positive nuclei, normalised values.
1. CCCCCCCCCCCCCC=CC(O)C(CO)N(C)C (stereo not given)
2. COc1ccc(N2C(=O)C(=Cc3ccc([N+](=O)[O-])s3)SC2=S)cc1
3. CC(=O)NC(CSC(=S)NSc1ccc(SNC(=S)SCC(NC(C)=O)C(=O)O)cc1)C(=O)O (stereo not given)
4. COC(=O)C#Cc1ccc([N+](=O)[O-])cc1

1. -0.148
2. 0.0572
3. -0.118
4. -0.0262
